Data origin: a melting point compilation (Tetko et al.; mined from patent text by program, amines drawn as free bases though some values may be those of a salt)

Listing of entries alongside the reported melting point.

I would be grateful if you could share the reported melting point for CCc1nc(-c2cnccn2)no1 .
52 to 57 °C

// returns reported melting point for input CC(C)(C)OC(=O)Nc1cccc(C(=O)NCC(=O)OCc2ccccc2)c1
171 to 173 °C

Requested field: melting point. Item: Cn1cc(-c2ccc(C(=O)O)cc2)cn1
274 to 275 °C

State the recorded melting point for this entry: CC(C)NC(=O)C(C)CN(C)C (stereo not given)
67 to 69 °C

Would you mind telling me what melting point value was observed for COc1cc2c(c(OC)c1OC)C=C(C=CC(=O)N1CCC(C3CCN(C(=O)C=CC4=Cc5c(cc(OC)c(OC)c5OC)CC4)CC3)CC1)CC2 ?
253 to 256 °C

Now, please, on to the next molecule.
Can you share its melting point? I mean this molecule: O=C1C(=O)c2ccccc2C2=C1SCC1(CCN(c3cc(Cl)ncn3)CC1)O2
172 to 174 °C
